The reported measurements were obtained from ChEMBL document CHEMBL4382249.

Let's go through some IC50 measurements on Tubulin (Bos taurus, UniProt Q6B856+Q862L2+Q862F3) together.
parameter measured: IC50 (µM)

The examples below pair each entry with its known result.
# input smiles, IC50 (µM)
rows = [
    ("Nc1ccccc1NC(=O)c1ccc(CNc2cccc3c2N(S(=O)(=O)c2ccccc2)CC3)cc1", 3.2),
    ("COc1ccc(S(=O)(=O)N2CCc3cccc(NCc4ccc(C(=O)Nc5ccccc5N)cc4)c32)cc1", 1.1),
    ("COc1ccc(S(=O)(=O)N2CCc3cccc(/C=C/c4ccc(C(=O)Nc5ccccc5N)cc4)c32)cc1", 2.7),
    ("COc1ccc(S(=O)(=O)N2CCc3cccc(CCc4ccc(C(=O)Nc5ccccc5N)cc4)c32)cc1", 2.5),
    ("Nc1ccccc1NC(=O)c1ccc(CNc2cccc3c2N(S(=O)(=O)c2ccc(F)cc2)CC3)cc1", 3.7),
    ("COc1cccc(S(=O)(=O)N2CCc3cccc(NCc4ccc(C(=O)Nc5ccccc5N)cc4)c32)c1", 3.5),
]

1 = N#Cc1ccc(S(=O)(=O)N2CCc3cccc(NCc4ccc(C(=O)Nc5ccccc5N)cc4)c32)cc1
2 = Nc1ccccc1NC(=O)c1ccc(CNc2cccc3c2N(S(=O)(=O)c2ccc(Cl)cc2)CC3)cc1
Q: Exercise: compare 1 and 2 ; which one has the greater IC50? Selection: enter the item's label.
Result: 1
(1: 6.4 µM, 2: 4 µM)

---

# target of assay: Histone deacetylase 2 (Homo sapiens)
# Sequence (Q92769 whole entry): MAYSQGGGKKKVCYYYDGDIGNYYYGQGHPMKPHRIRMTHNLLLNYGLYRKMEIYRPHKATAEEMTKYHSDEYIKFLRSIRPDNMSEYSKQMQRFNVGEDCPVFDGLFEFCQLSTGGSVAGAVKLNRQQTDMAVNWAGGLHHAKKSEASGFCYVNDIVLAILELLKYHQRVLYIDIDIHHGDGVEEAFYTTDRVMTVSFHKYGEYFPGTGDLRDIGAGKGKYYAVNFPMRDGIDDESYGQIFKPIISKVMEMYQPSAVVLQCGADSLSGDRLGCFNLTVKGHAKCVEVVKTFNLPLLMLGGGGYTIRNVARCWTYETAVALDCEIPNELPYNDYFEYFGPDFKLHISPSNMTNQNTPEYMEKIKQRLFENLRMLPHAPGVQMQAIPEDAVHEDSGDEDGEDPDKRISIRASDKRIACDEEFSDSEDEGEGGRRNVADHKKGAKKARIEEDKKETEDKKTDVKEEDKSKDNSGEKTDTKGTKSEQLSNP
parameter measured: IC50 (nM)
Your answer is read as nM, so omit the unit and give the number.

Q: Look up and report IC50, with Histone deacetylase 2 (Homo sapiens) as system, for COc1ccc(S(=O)(=O)N2CCc3cccc(NCc4ccc(C(=O)Nc5ccccc5N)cc4)c32)cc1
Result: 662

---

# target of assay: Protein deacetylase HDAC6 (Homo sapiens, UniProt Q9UBN7)
# Sequence (Q9UBN7 whole entry): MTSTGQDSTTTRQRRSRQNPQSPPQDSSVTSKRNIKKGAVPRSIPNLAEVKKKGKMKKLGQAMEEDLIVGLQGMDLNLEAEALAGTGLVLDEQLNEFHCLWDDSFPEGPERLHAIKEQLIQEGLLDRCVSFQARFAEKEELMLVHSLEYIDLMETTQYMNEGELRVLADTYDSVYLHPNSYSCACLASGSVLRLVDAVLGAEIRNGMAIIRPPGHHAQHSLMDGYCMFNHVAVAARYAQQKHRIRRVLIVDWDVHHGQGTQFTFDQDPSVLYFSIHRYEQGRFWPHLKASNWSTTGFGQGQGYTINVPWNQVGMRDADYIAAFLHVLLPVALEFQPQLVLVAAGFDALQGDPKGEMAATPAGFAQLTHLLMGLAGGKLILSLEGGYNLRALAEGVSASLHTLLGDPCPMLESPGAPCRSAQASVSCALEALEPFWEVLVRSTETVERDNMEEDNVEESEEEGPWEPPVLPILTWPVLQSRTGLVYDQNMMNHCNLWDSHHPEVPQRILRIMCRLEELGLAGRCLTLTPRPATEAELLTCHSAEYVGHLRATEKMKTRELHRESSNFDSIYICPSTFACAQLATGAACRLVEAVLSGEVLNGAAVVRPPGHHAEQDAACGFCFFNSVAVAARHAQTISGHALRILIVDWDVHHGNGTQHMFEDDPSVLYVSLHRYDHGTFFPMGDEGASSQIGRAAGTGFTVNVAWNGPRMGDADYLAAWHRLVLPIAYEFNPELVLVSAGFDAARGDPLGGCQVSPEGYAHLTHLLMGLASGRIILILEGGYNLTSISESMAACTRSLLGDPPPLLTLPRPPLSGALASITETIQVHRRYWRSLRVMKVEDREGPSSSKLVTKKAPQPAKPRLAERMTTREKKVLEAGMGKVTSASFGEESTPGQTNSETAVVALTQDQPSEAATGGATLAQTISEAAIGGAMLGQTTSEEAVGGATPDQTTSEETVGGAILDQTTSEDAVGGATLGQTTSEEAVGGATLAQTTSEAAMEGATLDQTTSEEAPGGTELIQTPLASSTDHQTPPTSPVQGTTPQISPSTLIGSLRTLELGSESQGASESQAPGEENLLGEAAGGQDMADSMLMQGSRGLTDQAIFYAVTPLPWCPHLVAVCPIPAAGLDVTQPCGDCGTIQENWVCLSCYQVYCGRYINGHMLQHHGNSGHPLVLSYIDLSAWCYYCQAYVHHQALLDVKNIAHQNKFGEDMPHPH
parameter measured: pIC50
Please express pIC50 as -log10 of the molar concentration.

Q: Look up and report pIC50, with Protein deacetylase HDAC6 (Homo sapiens, UniProt Q9UBN7) as system, for COc1ccc(S(=O)(=O)N2CCc3cccc(NCc4ccc(C(=O)Nc5ccccc5N)cc4)c32)cc1
Result: 6.50

---

# target of assay: Histone deacetylase 1 (Homo sapiens, UniProt Q13547)
# Sequence (Q13547 whole entry): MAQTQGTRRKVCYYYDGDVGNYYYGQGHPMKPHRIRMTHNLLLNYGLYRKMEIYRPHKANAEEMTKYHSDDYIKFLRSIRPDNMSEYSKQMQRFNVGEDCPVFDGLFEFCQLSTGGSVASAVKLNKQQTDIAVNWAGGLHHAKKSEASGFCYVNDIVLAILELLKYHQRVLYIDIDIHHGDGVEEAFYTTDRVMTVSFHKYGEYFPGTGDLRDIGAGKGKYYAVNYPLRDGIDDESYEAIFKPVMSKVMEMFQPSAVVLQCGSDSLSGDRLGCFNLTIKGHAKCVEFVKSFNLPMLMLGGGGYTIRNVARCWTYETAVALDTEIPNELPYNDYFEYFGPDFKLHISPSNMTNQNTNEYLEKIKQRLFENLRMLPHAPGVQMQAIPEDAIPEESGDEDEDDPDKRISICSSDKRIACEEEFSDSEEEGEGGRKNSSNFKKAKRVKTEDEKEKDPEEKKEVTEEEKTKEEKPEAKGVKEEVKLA
parameter measured: IC50 (nM)
Your answer is read as nM, so omit the unit and give the number.

Q: Check the records and state IC50 for COc1ccc(S(=O)(=O)N2CCc3cccc(NCc4ccc(C(=O)Nc5ccccc5N)cc4)c32)cc1
Result: 221

---

Let's go through some IC50 measurements on Tubulin (Bos taurus, UniProt Q6B856+Q862L2+Q862F3) together.
parameter measured: IC50 (µM)

The examples below pair each entry with its known result.
# molecule, parameter measured, quantitative readout
rows = [
    ("Nc1ccccc1NC(=O)c1ccc(CNc2cccc3c2N(S(=O)(=O)c2ccc(O)cc2)CC3)cc1", "IC50", 3.3),
    ("COc1ccc(S(=O)(=O)N2CCc3cccc(Nc4ccc(C(=O)Nc5ccccc5N)cc4)c32)cc1", "IC50", 2.3),
]

1 = COc1ccc(S(=O)(=O)N2CCc3cccc(NCc4ccc(C(=O)Nc5cccc(N)c5)cc4)c32)cc1
2 = COc1ccc(S(=O)(=O)n2ccc3cccc(NCc4ccc(C(=O)Nc5ccccc5N)cc4)c32)cc1
3 = COc1ccc(S(=O)(=O)N2CCc3cccc(NCc4cccc(C(=O)Nc5ccccc5N)c4)c32)cc1
Q: Ordering criterion: IC50; begin with the maximum. A complete answer lists every label in the requested sequence.
Result: 3, 2, 1
